Quick reference for phosphorylation enrichment among some sequences
System: c-Abl (mouse)
assayOverview: phosphorylation enrichment, bacterial display (enrichment ratio); higher = better substrate or ligand; peptides without Tyr show the background;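 also: 11-residue human phosphosite peptides and single-mutation variants displayed on the E. coli surface, counted by deep sequencing, each peptide's frequency after selection divided by its frequency in the unselected input library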;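 also: frequency after pTyr selection over input frequency; kinase dosed for 20-30% of maximal phosphorylation in three min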

- sequenceData: "SAPDSYIGIGN [SLC38A4_Y27]"
  observedValue: 0.594
- sequenceData: "LTPVKYLLSAT [GSDMC_Y26]"
  observedValue: 0.593

Moving on to the next sequence.
Data request: Return value of phosphorylation enrichment for input DTKPAYQNLRQ [BOD1_Y82] , no commentary.
Data returned: 0.719

----------
Test system: c-Src
assayOverview: phosphorylation enrichment, bacterial display (enrichment ratio); higher = better substrate or ligand; peptides without Tyr show the background
// NO strictly below 0.5 in phosphorylation enrichment; YES otherwise

Field: example entries. Status: answers known.
- sequenceData: "KVALVYGQMNE [ATP5F1B_Y269]"
  measuredOn: "c-Src"
  assignedLabel: "YES"
- sequenceData: "CTTIHYNYKCN [TP53_Y234_M237K]"
  measuredOn: "c-Src"
  assignedLabel: "NO"
- sequenceData: "VKANTYEKYWL [GATM_Y100_P105L]"
  measuredOn: "c-Src"
  assignedLabel: "YES"
- sequenceData: "ETALHYIHDGI [GATD3A_Y250]"
  measuredOn: "c-Src"
  assignedLabel: "NO"
- sequenceData: "VVIVLYFSLWK [SLC6A2_Y249]"
  measuredOn: "c-Src"
  assignedLabel: "NO"

Data request: Would you say LARNMYDKEFF [MET_Y1230_D1228N_YF] shows phosphorylation enrichment at minimum 0.5?
Data returned: YES

Data request: Would you say DNPAKYFILES [DPP10_Y512] shows phosphorylation enrichment at minimum 0.5?
Data returned: NO

----------
measuredOn: EPHB1 (UniProt P54762)
Sequence (P54762 whole entry, looked up): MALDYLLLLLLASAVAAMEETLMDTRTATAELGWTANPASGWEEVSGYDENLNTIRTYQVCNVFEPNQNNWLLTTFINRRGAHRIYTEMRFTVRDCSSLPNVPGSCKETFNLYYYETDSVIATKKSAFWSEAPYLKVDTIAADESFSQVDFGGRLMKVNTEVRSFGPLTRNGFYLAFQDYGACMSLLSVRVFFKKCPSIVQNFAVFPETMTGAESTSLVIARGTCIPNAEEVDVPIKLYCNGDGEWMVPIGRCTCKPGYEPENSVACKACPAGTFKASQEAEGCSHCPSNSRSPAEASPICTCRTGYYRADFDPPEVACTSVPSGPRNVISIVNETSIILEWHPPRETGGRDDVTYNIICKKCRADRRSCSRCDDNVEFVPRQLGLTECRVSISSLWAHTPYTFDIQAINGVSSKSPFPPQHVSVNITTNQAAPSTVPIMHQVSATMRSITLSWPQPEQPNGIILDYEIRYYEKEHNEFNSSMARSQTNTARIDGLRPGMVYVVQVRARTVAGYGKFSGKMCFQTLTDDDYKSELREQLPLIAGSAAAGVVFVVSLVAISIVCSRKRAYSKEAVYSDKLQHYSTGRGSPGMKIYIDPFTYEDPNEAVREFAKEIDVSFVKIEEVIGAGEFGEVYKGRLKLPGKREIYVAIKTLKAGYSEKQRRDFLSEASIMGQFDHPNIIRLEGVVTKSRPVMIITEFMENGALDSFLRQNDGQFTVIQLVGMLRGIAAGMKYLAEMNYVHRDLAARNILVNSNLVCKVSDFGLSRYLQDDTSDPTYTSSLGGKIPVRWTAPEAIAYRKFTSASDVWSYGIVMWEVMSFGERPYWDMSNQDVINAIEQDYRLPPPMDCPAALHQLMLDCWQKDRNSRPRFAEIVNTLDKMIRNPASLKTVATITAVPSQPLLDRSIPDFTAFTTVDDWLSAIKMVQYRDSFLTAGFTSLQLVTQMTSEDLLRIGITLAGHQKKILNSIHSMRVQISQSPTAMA
assayOverview: phosphorylation enrichment, bacterial display (enrichment ratio); higher = better substrate or ligand; peptides without Tyr show the background
reportedProperty: phosphorylation enrichment
No unit in the answer, please; the number alone is enough.

Solved cases below.
- sequenceData: "TEDAEYDVQSK [PTCHD3_Y335_P333A]"
  phosphorylation enrichment: 0.611
- sequenceData: "NPQKSYFIRLY [WAS_Y83]"
  phosphorylation enrichment: 0.61

Data request: Return value of phosphorylation enrichment for input SVVVPYEPPED [TP53_Y220_V225D] , no commentary.
Data returned: 0.607

----------
Test system: c-Abl (mouse)
assayOverview: phosphorylation enrichment, bacterial display (enrichment ratio); higher = better substrate or ligand; peptides without Tyr show the background
Class (by phosphorylation enrichment) -- label 0: < 0.6; label 1: ≥ 0.6 and < 0.8; label 2: ≥ 0.8

Field: example entries. Status: answers known.
- sequenceData: "ILGLEYSLRVP [HELZ2_Y1304]"
  assignedLabel: "label 1"
- sequenceData: "HQKKPYCHTHN [NRAP_Y53_A56T]"
  assignedLabel: "label 2"
- sequenceData: "RAADFYSQQMA [GBP6_Y334_YF]"
  assignedLabel: "label 2"

Data request: Please indicate the class for WHHTFYNELRV [ACTA1_Y93] based on its phosphorylation enrichment.
Data returned: label 1

Data request: Please indicate the class for KVKSIYFHTQG [AR_Y916_P914S] based on its phosphorylation enrichment.
Data returned: label 0

Data request: Please indicate the class for KAPPTYDTVLQ [CYP3A4_Y347] based on its phosphorylation enrichment.
Data returned: label 1

Data request: Please indicate the class for YTNELYMMMRD [FGFR1_Y730_C725Y] based on its phosphorylation enrichment.
Data returned: label 1
